meta.source: paper PMC8122790

# Procedure text: Cytotoxicity in MT4 cells (MTT)
# Type: cell-based
# Assay setup: human
Listing: IC50 at 5 days of selected compounds

Worked set:
Compound	IC50 at 5 days
Oc1cc(O)cc(/C=C/c2ccc(O)c(O)c2)c1	> 333 µM
c1cc(CN2CCCNCCNCCCNCC2)ccc1CN1CCCNCCNCCCNCC1 [Plerixafor (AMD3100), Plerixafor, reference compound]	> 1 µM
CCCCCCCCCCCCCCCC(=O)O	> 333 µM

INPUT: Form field: reported IC50 at 5 days of Oc1ccc([C@H]2Oc3cc(O)ccc3[C@@H](c3c(O)cc(O)c4c3O[C@H](c3ccc(O)cc3)[C@H](O)C4)[C@@H]2O)cc1 [Guibourtinidol-(4α→8)-epiafzelechin (4), guibourtinidol-(4α→8)-epiafzelechin]
OUTPUT: > 333 µM

INPUT: # input compound: CC12OC(=O)CC1C1Oc3c(c(O)cc(O)c3C3c4ccc(O)cc4OC(c4ccc(O)cc4)C3O)CC1O2 (centres unmarked) ; wanted: its IC50 at 5 days
OUTPUT: > 333 µM

* * *

We begin with a simple list: items and their reported IC50 at 5 days.
# Procedure text: Cytotoxicity in MT4 cells (MTT)
# Assay type: cell-based
# Assay setup: human; MT4 cells incubated with compound alone; five days; MTT; read-out: IC50 Cytotoxicity

Compound	IC50 at 5 days
CC1(C)CC[C@]2(C(=O)O)CC[C@]3(C)C(=CC[C@@H]4[C@@]5(C)CC[C@H](O)C(C)(C)[C@@H]5CC[C@]43C)[C@@H]2C1 [Oleanolic acid (17), oleanolic acid]	> 333 µM

Then there is this compound:
INPUT: What value of IC50 at 5 days has been reported for the following compound? O=C1c2c(O)cc(O)cc2OC(c2ccc(O)c(O)c2)C1O (centres unmarked) [Taxifolin (8), taxifolin]
OUTPUT: > 333 µM
